System: S. pneumoniae
protocolText: Kill or inhibit growth/proliferation; morphology, biofilm and growth disruption (Tables 5, 6); note: test concentration or dose not given here
Format: cell-based, Streptococcus pneumoniae
Design: key: A: Peptide aggregates; B: Less hyphal formation; Clumps; Diffuse clumps and small polyps; F: Diffuse growth; H: Thin; I: Growth inhibition; Microcolony formation; Rippled; Small polyps; Thick; W: Halo formation on top, microlonies on bottom
endpointName: Organism, effect

Guide cases for Organism, effect, answers given:
>>> assayvalue("PF-178: peptide having multiple activities (EVYSSPTNNVAITVQNN; Peptide with targeting and/or antimicrobial activity)")
"S. pneumoniae (D)"
>>> assayvalue("PF-390: peptide having multiple activities (chain 1 VVAYVITQVGAIRF; chain 2 VVAYVITQVGAIRF; Peptide with targeting and/or antimicrobial activity)")
"S. pneumoniae (D)"
>>> assayvalue("PF-615: peptide having multiple activities (FLNRFIFYIFTVKTKSALIKNLFLD; Peptide with targeting and/or antimicrobial activity)")
"S. pneumoniae (D)"
>>> assayvalue("PF-468 (EDNKDKKDKKDK; Peptide with targeting and/or antimicrobial activity)")
"S. pneumoniae (H)"
>>> assayvalue("PF-567: peptide having multiple activities (chain 1 QQRVKAVDASLSQVSTQVSGAVASA; chain 2 QQRVKAVDASLSQVSTQVSGAVASA; Peptide with targeting and/or antimicrobial activity)")
"S. pneumoniae (D)"
>>> assayvalue("PF-449 (MPTTKSKQKGWTNTKKASNTQ; Peptide with targeting and/or antimicrobial activity)")
"S. pneumoniae (H)"
>>> assayvalue("PF-592: peptide having multiple activities (IMKNYKYFKLFIVKYALF; Peptide with targeting and/or antimicrobial activity)")
"S. pneumoniae (D)"

Here is another substance to look at.
Problem: What Organism, effect value was documented for this substance, PF-586: peptide having multiple activities (FFNQANYFFKEF; Peptide with targeting and/or antimicrobial activity) ?
Result: S. pneumoniae (D)

====

System: microorganisms (e.g., bacteria, yeasts, fungi)
protocolText: Targeting peptide binding to target microorganisms (Table 3)
experimentalSetup: peptide binding in aqueous buffers varied by peptide solubility; preferably 1x PBS
endpointName: Target(s) (microorganisms bound by the targeting peptide)

Guide cases for Target(s) (microorganisms bound by the targeting peptide), answers given:
>>> assayvalue("PF-666 (chain 1 PNRRSRPR; chain 2 PNRRSRPR; Peptide with targeting and/or antimicrobial activity)")
"Mycobacteria spp"
>>> assayvalue("PF-644 (chain 1 TSGLIIGENGLNGL; chain 2 TSGLIIGENGLNGL; Peptide with targeting and/or antimicrobial activity)")
"Mycobacteria spp"
>>> assayvalue("PF-702 (chain 1 LSGRLAGRR; chain 2 LSGRLAGRR; Peptide with targeting and/or antimicrobial activity)")
"Mycobacteria spp"
>>> assayvalue("PF-794 (NLYFENQGN; Peptide with targeting and/or antimicrobial activity)")
"S. mutans"
>>> assayvalue("PF-800 (WYYFDNNGYM; Peptide with targeting and/or antimicrobial activity)")
"S. mutans"

Below are 2 substances. Give each one its Target(s) (microorganisms bound by the targeting peptide).
1. PF-685 (chain 1 PTLWLACL; chain 2 PTLWLACL; Peptide with targeting and/or antimicrobial activity)
2. PF-656 (chain 1 RGMFVPFHDVDCVQ; chain 2 RGMFVPFHDVDCVQ; Peptide with targeting and/or antimicrobial activity)

Result:
1: Mycobacteria spp; 2: Mycobacteria spp

====

System: S. pneumoniae
protocolText: Kill or inhibit growth/proliferation; morphology, biofilm and growth disruption (Tables 5, 6); note: test concentration or dose not given here
Assay type: cell-based, Streptococcus pneumoniae
Parameters: key: A: Peptide aggregates; B: Less hyphal formation; Clumps; Diffuse clumps and small polyps; F: Diffuse growth; H: Thin; I: Growth inhibition; Microcolony formation; Rippled; Small polyps; Thick; W: Halo formation on top, microlonies on bottom
endpointName: Organism, effect

>>> assayvalue("PF-469: peptide having multiple activities (chain 1 YKVNYNNIDNHFNTLRH; chain 2 YKVNYNNIDNHFNTLRH; Peptide with targeting and/or antimicrobial activity)")
"S. pneumoniae (D)"
>>> assayvalue("PF-171: peptide having multiple activities (TQVTLCRTW; Peptide with targeting and/or antimicrobial activity)")
"S. pneumoniae (D)"
